Tested on: central memory T cells
assay_notes: Cultured IFN-γ ELISPOT after 10-day in vitro stimulation of PBMC, phase 1/2 colon cancer trial of OSE-2101
Format: in vivo, human
Parameters: key: —, indicates SFC response did not meet criteria and vaccine response was negative
condition_set: colon patient 609, Week 18
parameter: net SFC of vaccine positive CTL responses

1) KVAEIVHFL [MAGE3.112I5 A]
—
2) YLQLVFGIEV [MAGE2.157 WT]
—
3) LLTFWNPPV [CEA.24V9 A]
31.7 SFC per 50,000 cells
4) YLSGADLNL [CEA.605D6 A]
22.0 SFC per 50,000 cells
5) IMIGHLVGV [CEA.691H5 A]
86.0 SFC per 50,000 cells
6) KVFGSLAFV [HER2.369L2V9 A]
14.7 SFC per 50,000 cells
7) KLBPVQLWV [p53.139L2B3 A]
—
8) SMPPPGTRV [p53.149M2 A]
—

---

System: central memory T cells
assay_notes: Cultured IFN-γ ELISPOT after 10-day in vitro stimulation of PBMC, phase 1/2 colon cancer trial of OSE-2101
Type: in vivo, human
Set-up: key: —, indicates SFC response did not meet criteria and vaccine response was negative
condition_set: colon patient 606, Week 9
parameter: net SFC of vaccine positive CTL responses

1) KVFGSLAFV [HER2.369L2V9 A]
—
2) KVAEIVHFL [MAGE3.112I5 A]
—
3) KLBPVQLWV [p53.139L2B3 A]
43.7 SFC per 50,000 cells
4) LLTFWNPPV [CEA.24V9 A]
—
5) YLSGADLNL [CEA.605D6 A]
—
6) SMPPPGTRV [p53.149M2 A]
—
7) YLQLVFGIEV [MAGE2.157 WT]
—
8) IMIGHLVGV [CEA.691H5 A]
24.3 SFC per 50,000 cells

---

System: central memory T cells
assay_notes: Cultured IFN-γ ELISPOT after 10-day in vitro stimulation of PBMC, phase 1/2 NSCLC trial of OSE-2101
Format: in vivo, human
condition_set: 6 NSCLC patients, Week 18
Below, each of the sequences is paired with its reported No. Positive Responses value.
parameter: No. Positive Responses

1) KVAEIVHFL [MAGE3.112I5 A]
0
2) YLQLVFGIEV [MAGE2.157 WT]
2
3) KVFGSLAFV [HER2.369L2V9 A]
4
4) SMPPPGTRV [p53.149M2 A]
0
5) YLSGADLNL [CEA.605D6 A]
2
6) IMIGHLVGV [CEA.691H5 A]
3
7) LLTFWNPPV [CEA.24V9 A]
2
8) KLBPVQLWV [p53.139L2B3 A]
4

---

Tested on: central memory T cells
assay_notes: Cultured IFN-γ ELISPOT after 10-day in vitro stimulation of PBMC, phase 1/2 colon cancer trial of OSE-2101
Type: in vivo, human
condition_set: colon patient 601, Week 9
parameter: net SFC of vaccine positive CTL responses

1. LLTFWNPPV [CEA.24V9 A]
118.0 SFC per 50,000 cells
2. KVFGSLAFV [HER2.369L2V9 A]
112.7 SFC per 50,000 cells
3. YLSGADLNL [CEA.605D6 A]
88.3 SFC per 50,000 cells
4. YLQLVFGIEV [MAGE2.157 WT]
—
5. KLBPVQLWV [p53.139L2B3 A]
129.0 SFC per 50,000 cells
6. SMPPPGTRV [p53.149M2 A]
—
7. KVAEIVHFL [MAGE3.112I5 A]
27.0 SFC per 50,000 cells
8. IMIGHLVGV [CEA.691H5 A]
417.3 SFC per 50,000 cells
